Data credit: patent US20240084003A1

target-or-test-system: T1, CD22 on cynomolgus monkey peripheral blood B cells (cynomolgus monkey (Macaca fascicularis))
T1 construct: whole, on cells; also called cynomolgus monkey B cells
assay-explanation: FACS, cynomolgus PBMC, CD20+ B cells, antibody 100 nM
value-type: Proportion of chimeric antibody positive cells to B cells (%)

F1.257.3 (antibody, human IgG1, kappa, V domains shown, human-murine chimeric IgG1 kappa; VL name legible) VH: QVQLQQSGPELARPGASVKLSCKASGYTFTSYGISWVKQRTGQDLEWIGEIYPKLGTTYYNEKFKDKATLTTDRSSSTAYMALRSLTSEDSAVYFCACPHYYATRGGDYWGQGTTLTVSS VL: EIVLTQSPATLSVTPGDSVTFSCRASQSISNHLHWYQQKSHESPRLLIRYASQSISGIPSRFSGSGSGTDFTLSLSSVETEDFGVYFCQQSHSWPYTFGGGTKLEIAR : 34
F2.343.16 (antibody, human IgG1, lambda, V domains shown, human-murine chimeric IgG1 lambda; VL name legible) VH: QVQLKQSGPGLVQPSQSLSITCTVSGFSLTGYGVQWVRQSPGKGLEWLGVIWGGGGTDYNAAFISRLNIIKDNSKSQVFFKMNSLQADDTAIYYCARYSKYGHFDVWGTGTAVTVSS VL: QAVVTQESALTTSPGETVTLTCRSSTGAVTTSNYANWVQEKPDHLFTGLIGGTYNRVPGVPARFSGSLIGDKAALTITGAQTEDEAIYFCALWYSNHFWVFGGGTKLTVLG : 22
F1.105.11 (antibody, human IgG1, kappa, V domains shown, human-murine chimeric IgG1 kappa; VL name legible) VH: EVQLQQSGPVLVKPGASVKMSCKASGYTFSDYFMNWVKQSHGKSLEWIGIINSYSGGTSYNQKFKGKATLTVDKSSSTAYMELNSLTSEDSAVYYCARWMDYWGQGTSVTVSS VL: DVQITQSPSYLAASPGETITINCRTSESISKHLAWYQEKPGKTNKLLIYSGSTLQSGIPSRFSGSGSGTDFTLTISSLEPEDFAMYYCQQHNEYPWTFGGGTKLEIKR : 69
